For each record, write down the corresponding SPOT intensity.
- assay.system: GST
- run.description: SPOT array
- recorded.conditions: median of control spots 978
API doc: respond with a numeric literal and nothing else, no unit.

Record FYHRPAPKPPVTKKV , field SPOT intensity: 0

Record RPKRRAPPPVPKKPS , field SPOT intensity: 6

Record TSIEIPKRSPLRFTS , field SPOT intensity: 0

Record VPPPMQPPPIESSNL , field SPOT intensity: 0
